- System: CAKI-1 renal
- Test Details: NCI tumour cell line growth inhibition, 48 h
Property Measured: TGI

Consider the following illustrative entries.
In [3]: df
Out[3]:
                                   compound   measured_on     result
0  O=C1OC(C2Cc3ccc4ccccc4c3C2=O)c2ccccc21 (stereo unspecified)  CAKI-1 renal   > 100 µM
1  COc1ccc2c(c1OCC(=O)O)C(=O)C(CCC(=O)O)CC2 (stereo unspecified)  CAKI-1 renal   > 100 µM
2  CCN1CCN(c2cc(C)c3cc(NC(=O)c4ccc(OC)c(OC)c4)ccc3n2)CC1  CAKI-1 renal   > 100 µM
3  O=c1[nH][nH]c(=O)n1CCCCCCn1c(=O)[nH][nH]c1=O  CAKI-1 renal   > 100 µM
4  O=[N+]([O-])C(=C(Nc1cccc2cccnc12)Nc1cccc2cccnc12)C(Cl)=C(Cl)Cl  CAKI-1 renal  > 92.2 µM

Hey, quick one: what's TGI for each of these?
1. CC(=NNC(=S)Nc1ccccc1)c1cccc(C(C)=NNC(=S)Nc2ccccc2)n1
2. CN(C)C(=S)/N=c1\sn(C)/c(=N\C(=S)N(C)C)n1C

1: > 22.9 µM; 2: > 100 µM

Hey, quick one: what's TGI for each of these?
1. CC(C)(C)c1cc(C(P(=O)(O)O)P(=O)(O)O)cc(C(C)(C)C)c1O
2. Cc1c2n(c(=O)[nH]c1=O)C1OC(CO)C(N=[N+]=[N-])C1O2 (stereo unspecified)
3. N#Cc1nn(-c2cc(=O)[nH]c3ccc(Cl)cc23)c(N)c1C#N
4. O=c1oc2cc(O)ccc2c(O)c1C(c1ccccc1)c1c(O)c2ccc(O)cc2oc1=O
5. Clc1cc2c(c(CSc3nc4ccccc4n4cccc34)c1)OCOC2
6. Cc1c(/C=N\NC(=S)NCCNC(=S)N/N=C\c2c(C)n(C)n(-c3ccccc3)c2=O)c(=O)n(-c2ccccc2)n1C
7. Cc1nn(-c2ccccc2)c2c1C(c1cc3ccccc3nc1Cl)NC(=O)N2 (stereo unspecified)

1. > 100 µM
2. > 100 µM
3. > 100 µM
4. > 100 µM
5. > 100 µM
6. > 100 µM
7. > 100 µM

Hey, quick one: what's TGI for each of these?
1. COc1cc(C(=O)N2CCN(C(=O)c3cc(OC)c(OC)c(OC)c3)C2=S)cc(OC)c1OC
2. O=P(O)(O)C(N=C(Nc1ccccc1)Nc1ccccc1)P(=O)(O)O
3. Nc1ncc(-c2ccc3ncnc(Nc4ccc(F)c(Cl)c4)c3c2)cn1
4. COc1cnc2c(c1)C(=O)c1c-2n(CCCNC2=NCCS2)c(=O)c2cc([N+](=O)[O-])ccc12

["24.7 µM", "> 100 µM", "4.02 µM", "1.47 µM"]

Hey, quick one: what's TGI for each of these?
1. Cn1c(SCc2ccc(F)cc2)nnc1C12CC3CC(CC(C3)C1)C2
2. S=C1NC2=C(CSC/C2=C\c2cccc(Br)c2)C(c2cccc(Br)c2)N1 (stereo unspecified)
3. CCOS(C)(=O)=O

["> 100 µM", "> 100 µM", "> 100 µM"]
